The reported numbers originate from patent US20050004118A1.

assay: stability against chemical hydrolysis in pH solutions; format: physicochemical; settings: pH 1.0 solution, pH 1; 1.0 pH solution; read-out: half life in a 1.0 pH solution (converted)
observed property: half-life

q: Given the compound `Cc1cccc(Nc2ccccc2C(=O)OCCOC(=O)N2CCOCC2)c1C` , write its reported half-life.
a: 7.6 h
